Listed below: z-score values for each entry.
# protocolSummary: inhibitors of hydroxyurea-induced Chk1 phosphorylation, primary screen, imaging, HeLa, phospho-Chk1 antibody, percent positive cells (AID 1186)
# appliedConditions: hydroxyurea-induced phospho-Chk1 immunofluorescence imaging, higher = more signal
Simply state the number, no unit and no words.

INSERT INTO results (compound, metric, testvalue) VALUES
  ('CC(c1ccccc1)C(O)C1C=CC2C(=O)N(c3ccccc3)C(=O)C2N1Nc1ccc([N+](=O)[O-])cc1 (stereo not drawn)', 'z-score', 0.433),
  ('COCCOC(=O)N1C(=O)[C@@]2(c3cc(C#CC4=CCCCC4)ccc31)[C@H](c1ccc(O)cc1)N1[C@H](c3ccccc3)[C@H](c3ccccc3)OC(=O)[C@H]1[C@@H]2C(=O)N1CCN(c2ncccn2)CC1', 'z-score', -0.231);

As a next step, examine the compound that follows.
Qu. Specify reported z-score for the compound shown: COC(=O)[C@@]1(Cc2ccc(F)cc2)[C@H]2c3cc(C(=O)N(C)C)n(CCc4ccc(O)c(OC)c4)c3C[C@H]2CN1C(=O)c1ccccc1
Ans. -0.47
